- experiment: Systemic activity after local administration: effect on weight gain
- Format: in vivo, male Sprague-Dawley I.O.P.S. rats
- stated_conditions: rat, in vivo, 8640 min
Hi there, I'd appreciate the recorded ED30 (30% inhibition in the weight gain) for every entry that follows.

# example entries with known answers
compound	ED30 (30% inhibition in the weight gain)
C=C1C[C@H]2[C@@H]3CCC4=CC(=O)C=C[C@]4(C)[C@H]3[C@@H](O)C[C@]2(C)[C@@]1(OC(=O)CC)C(=O)CSC(=O)CC	0.015 mg/pellet
CCCCC(=O)O[C@]1(C(=O)CSC(=O)CCCC)CC[C@H]2[C@@H]3C[C@H](C)C4=CC(=O)C=C[C@]4(C)[C@H]3[C@@H](O)C[C@@]21C	> 1 mg/pellet
CCCCC(=O)O[C@]1(C(=O)CSC(=O)CCCC)CC[C@H]2[C@@H]3CCC4=CC(=O)CC[C@]4(C)[C@H]3[C@@H](O)C[C@@]21C	> 3.2 mg/pellet
CCC(=O)SCC(=O)C1(OC(C)=O)C(C)CC2C3CCC4=CC(=O)C=CC4(C)C3(F)C(O)CC21C (stereo not drawn)	1 mg/pellet
CCCCC(=O)O[C@]1(C(=O)CSC(C)=O)CC[C@H]2[C@@H]3C[C@H](C)C4=CC(=O)C=C[C@]4(C)[C@H]3[C@@H](O)C[C@@]21C	> 1 mg/pellet

Kindly consider the entry below.
Q: If you can, please state the reported ED30 (30% inhibition in the weight gain) value of CCCC(=O)O[C@]1(C(=O)CSC(C)=O)CC[C@H]2[C@@H]3CCC4=CC(=O)C=C[C@]4(C)[C@H]3C(=O)C[C@@]21C .
Ans: > 5 mg/pellet
